Biological target: T1, cynomolgus monkey 4-1BB on CHO-K1 cells (cynomolgus monkey)
T1 chain: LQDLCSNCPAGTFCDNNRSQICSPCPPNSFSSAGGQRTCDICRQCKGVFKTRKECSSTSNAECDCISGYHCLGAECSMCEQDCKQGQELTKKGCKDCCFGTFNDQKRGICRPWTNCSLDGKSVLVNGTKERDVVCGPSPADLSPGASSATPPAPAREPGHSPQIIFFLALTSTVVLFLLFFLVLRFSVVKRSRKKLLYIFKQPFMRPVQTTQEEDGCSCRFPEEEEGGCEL
Experiment: FACS; FIG. 12D
readoutType: EC50 (nM)

Illustrative cases are given below, each with its answer.
>>> measuredresult("Utomilumab (antibody, V domains shown) VH: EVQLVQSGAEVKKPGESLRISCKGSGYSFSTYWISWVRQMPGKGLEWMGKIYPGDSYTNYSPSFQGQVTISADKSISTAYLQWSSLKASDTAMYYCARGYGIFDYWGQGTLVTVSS VL: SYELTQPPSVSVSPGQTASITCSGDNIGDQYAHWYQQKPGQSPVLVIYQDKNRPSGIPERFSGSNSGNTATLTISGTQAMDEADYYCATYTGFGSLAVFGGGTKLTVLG")
3.46
>>> measuredresult("PR001780 (antibody, V domains shown) VH: EVQLLESGGGLIQPGGSLRLSCAASGFTFSSFAMTWVRQAPGKGLEWVSTISGSGDNTYYADSVKGRFTISRDNSKNTLYLQMNSLRAEDTAVYFCAKEDTAVASDYYYNIDVWGQGTTVTVSS")
2.99
>>> measuredresult("PR001781 (antibody, V domains shown) VH: EVQLLESGGGLVQLGGSLRLSCAASGFTFSSYAMTWVRQAPEKGLEWVSSISGSGGNTYYADSVKGRFTISRDNSKNTLYLQMNSLRAEDTAVYYCAKERTGTTGDYYYNVDVWGQGTTVTVSS")
3.1

[P] PR001775 (antibody, V domains shown) VH: EVQLLESGGGLVQSGGSLRLSCAASGFTFSSYAMSWVRQAPGKGLEWVSAISGSGGSTDYADSVKGRFTISRDNSTNTLYLQMNSLRAEDTAVYYCAKERAYDYSNYVDFDYWGQGTLVTVSS
[Q] PR001776 (antibody, V domains shown) VH: EVQLLESGGGLVQPGGSLRLSCAASGFTFSSYAMSWVRQAPEKGLEWVSAISSSGGSTYYADSVKGRFTISRDNSKNTLYLQMNSLRAEDTAVYYCAKDGVTTPSYYYYYDMDVWGQGTTVTVSS
Prompt line: Return label of the item with the larger EC50. Candidates: P , Q . Respond using the label that marks the chosen record.
Response line: Q
